Data provenance: paper PMC5622025

Would you kindly list SI (ratio of CC50 to EC50) for each of these molecules?
test system: HCV; experiment: Anti-HCV effect in vitro, intracellular HCV RNA by real-time RT-PCR in infected Huh7.5 cells; format: cell-based, hepatitis C virus; settings: Huh7.5 cells

molecule=C=Cc1ccc(CN2C[C@@H]3CCCN4CCC[C@@H]([C@H]34)[C@H]2CCCCO)cc1.Cl.Cl reported_value=45.3

Give SI (ratio of CC50 to EC50) for all molecules that follow.
1. COC(=O)C/C=C\[C@@H]1[C@H]2CCCN3CCC[C@@H](CN1Cc1cccc([N+](=O)[O-])c1)[C@@H]23.Cl.Cl [13c]
2. CCC(O)(CC)CCC[C@@H]1[C@H]2CCCN3CCC[C@@H](CN1Cc1ccc(C)cc1)[C@@H]23.Cl.Cl [10c]
3. COC(=O)C/C=C\C1C2CCCN3CCCC(CN1Cc1ccc(OC)cc1)C23 (stereo not drawn) [13a]
4. COC(=O)C/C=C\[C@@H]1[C@H]2CCCN3CCC[C@@H](CN1Cc1ccc(F)cc1)[C@@H]23.Cl.Cl [13b]
5. COC(=O)CCC[C@@H]1[C@H]2CCCN3CCC[C@@H](CN1Cc1ccncc1)[C@@H]23 [6f, Methyl 12N-(pyridin-4-ylmethyl)matrinate]

Found:
[10.0, "> 53.5", 19.5, 14.4, "> 107"]

Give SI (ratio of CC50 to EC50) for all molecules that follow.
1. COC(=O)CCC[C@@H]1[C@H]2CCCN3CCC[C@@H](CN1Cc1ccc(C)cc1)[C@@H]23 [6b, Methyl 12N-(4-methylbenzyl)matrinate]
2. COC(=O)CCCC1C2CCCN3CCCC(CN1Cc1ccc([N+](=O)[O-])cc1)C23.Cl.Cl (stereo not drawn)
3. CCCCCCCCN1C[C@@H]2CCCN3CCC[C@@H]([C@H]23)[C@H]1CCCCO

Found:
1. 76.8
2. 16.5
3. 22.3
